# target.desc: proMMP9(20-445;ΔFnII) (SEQ ID NO:6) (Homo sapiens, UniProt P14780, DEL216-390)
# Construct: start methionine (N)
# Sequence (P14780 with tags, fused parts or gaps DEL216-390): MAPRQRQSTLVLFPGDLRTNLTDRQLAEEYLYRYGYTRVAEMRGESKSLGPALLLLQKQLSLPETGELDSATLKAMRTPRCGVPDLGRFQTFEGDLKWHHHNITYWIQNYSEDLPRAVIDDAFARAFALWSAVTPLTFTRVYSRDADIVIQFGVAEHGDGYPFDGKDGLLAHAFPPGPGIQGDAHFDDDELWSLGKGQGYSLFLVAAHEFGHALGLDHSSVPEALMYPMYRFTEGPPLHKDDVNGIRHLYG
# protocol.notes: ThermoFluor binding assay with proMMP9(20-445;ΔFnII)
pKd: −log10 of the molar value.
property.measured: pKd

>>> endpoint_value("NC(=O)c1ccc(OC(F)(F)F)c(Nc2nc(-c3ccnc(Cl)c3)cs2)c1 [Example 34]")
6.74

A = CC(C)Oc1ccc(S(N)(=O)=O)cc1Nc1nc(-c2ccc(N3CCC(CO)CC3)nc2)cs1 [Example 79]
B = CC(C)Oc1ccc(C(N)=O)cc1Nc1nc(-c2ccnc(N3CCN(C)CC3)c2)cs1 [Example 28]
C = CC(C)Oc1ccc(S(N)(=O)=O)cc1Nc1nc(-c2ccc(N3CCCN(C)CC3)nc2)cs1 [Example 40]
Provide the items ranked by increasing pKd. Output spec: labels arranged per the requested ranking.
A, B, C
(A: 6.82, B: 7.09, C: 7.36)

----------
# target.desc: proMMP9(20-445;ΔFnII) (SEQ ID NO:6) (Homo sapiens, UniProt P14780, DEL216-390)
# Construct: start methionine (N)
# protocol.notes: ThermoFluor binding assay with proMMP9(20-445;ΔFnII)
property.measured: Kd (nM)

// known answers, use as guide
>>> endpoint_value("CC(C)Oc1ccc(S(N)(=O)=O)cc1Nc1nc(-c2ccc(N3CCN(CC4CC4)CC3)nc2)cs1")
75
>>> endpoint_value("CC(C)Oc1ccc(S(N)(=O)=O)cc1Nc1nc(-c2ccc(C(=O)NC3CCCN(C)C3)nc2)cs1 (centres unmarked)")
360
>>> endpoint_value("CC(C)Oc1ccc(S(N)(=O)=O)cc1Nc1nc(-c2ccc(C(=O)NC3CCOCC3)nc2)cs1")
1900
>>> endpoint_value("CC(C)Oc1ccc(S(N)(=O)=O)cc1Nc1nc(-c2ccc(N3CCN(C)CC3)nc2)cs1")
46
>>> endpoint_value("CCN1CCC(NC(=O)c2ccc(-c3csc(Nc4cc(S(N)(=O)=O)ccc4OC(C)C)n3)cn2)CC1")
110
>>> endpoint_value("CC(C)Oc1ccc(C(=O)O)cc1Nc1nc(-c2cccnc2)cs1")
3600

P = CC(=O)N1CCN(c2ccc(-c3csc(Nc4cc(S(N)(=O)=O)ccc4OC(C)C)n3)cn2)CC1
Q = Cc1cc(C)c(-c2csc(Nc3cc(C(N)=O)ccc3OC(C)C)n2)c(C)n1
For the pair P and Q , which member has the lower Kd number? Answer by stating the label of the chosen item.
P
(P: 69 nM, Q: 27000 nM)

P = CC(C)Cc1ccc(C(N)=O)cc1Nc1nc(-c2ccc(N3CCN(C)CC3)nc2)cs1
Q = CC(C)Oc1ccc(S(N)(=O)=O)cc1Nc1nc(-c2ccc(C(=O)N3CCN(C)CC3)nc2)cs1
For the pair P and Q , which member has the lower Kd number? Answer by stating the label of the chosen item.
P
(P: 370 nM, Q: 1300 nM)

1 = CC(C)Oc1ccc(S(N)(=O)=O)cc1Nc1nc(-c2ccc(C(=O)N3CCN(C(C)C)CC3)nc2)cs1
2 = CC(C)Oc1ccc(S(N)(=O)=O)cc1Nc1nc(-c2ccc(N(C)CCO)nc2)cs1
3 = COc1cc(C(N)=O)ccc1Nc1nc(-c2cccnc2)cs1
Please list these molecules in decreasing order of Kd. Output spec: labels arranged per the requested ranking.
3, 1, 2

1 = CC(C)Oc1ccc(S(N)(=O)=O)cc1Nc1nc(-c2ccc(N3CCCCC3)nc2)cs1
2 = COC/C=C/c1ccc(-c2csc(Nc3cc(S(N)(=O)=O)ccc3OC(C)C)n2)cn1
For the pair 1 and 2 , which member has the lower Kd number? Answer by stating the label of the chosen item.
1

1 = Cc1cc2cccc(Nc3nc(-c4cccnc4)cs3)c2o1
2 = CC(C)Oc1ccc(S(N)(=O)=O)cc1Nc1nc(-c2ccc(NCCN(C)C)nc2)cs1
For the pair 1 and 2 , which member has the lower Kd number? Answer by stating the label of the chosen item.
2
(2: 130 nM, 1: 33000 nM)
